- EXPERIMENTAL PROTOCOL: Stability in human serum after 160 mins
- Format: ADME, cell-free
- CONDITION DETAILS: read-out: Stability

>  <COMPOUND>
CC(CP(=O)(O)C1CCCCCC[C@H](NC(=O)[C@@H](N)CCC(=O)O)C(=O)N[C@@H](CC(=O)O)C(=O)N1)C(=O)N[C@H](C(=O)N[C@@H](CCC(=O)O)C(=O)N[C@@H](Cc1ccccc1)C(=O)O)C(C)C (mixture of isomers; form 1)

>  <remaining at 160 min, %>
20

$$$$

Ref: ChEMBL document CHEMBL1153638
